measured.on: Exportin-1 (Homo sapiens)
measurement.notes: Inhibition of CRM1-mediated nucleocytoplasmic transport of RevM5 mutant in HEK293 cells assessed as RevM5-GFP nuclear localization at 10 ug/ml after 2 hrs by fluorescence microscopy
Assay type: cell-based
Activity calls are given as the source filed them. The rule behind the calls is not given here.
Your response should consist of one outcome taken from 1.0 for active, 0.0 for inactive

Request: Answer briefly: the call reported for `CCOC(=O)/C=C\n1nnnc1-c1cccc(Cl)c1` in this assay.
Result: 1.0

Request: Outcome? `Brc1cccc(-c2nnn[nH]2)c1`
Result: 0.0

Request: Outcome? `CCOC(=O)/C=C/n1nnc(-c2cc(Cl)ccc2N)n1`
Result: 1.0

Request: Dear colleague, could you share the recorded outcome for `CCOC(=O)/C=C\n1cnc(-c2ccccc2)c1` when you have a moment?
Result: 1.0

Request: Recorded call for `Nc1cc(Cl)ccc1-c1nnn[nH]1` ?
Result: 0.0

Request: Identify the outcome logged in this assay for the compound shown: `CCOC(=O)/C=C\n1nnnc1-c1cccc(Br)c1`
Result: 0.0

Request: Which outcome was assigned to `CCOC(=O)/C=C\n1cnc(-c2ccccc2N)n1` in this test?
Result: 1.0

====

measured.on: Exportin-1 (Homo sapiens)
measurement.notes: Inhibition of CRM1-mediated nucleocytoplasmic transport of RevM5 mutant in HEK293 cells assessed as RevM5-GFP nuclear localization at 2 ug/ml after 2 hrs by fluorescence microscopy
Assay type: cell-based
Activity calls are given as the source filed them. No cut-off for these calls is given here.
# output must be one of active, inactive

In [3]: df
Out[3]:
                          entry_smiles  assigned_label
0              Brc1cccc(-c2nnn[nH]2)c1        inactive
1               Ic1cccc(-c2nnn[nH]2)c1        inactive
2  CCOC(=O)/C=C\n1nnc(-c2cccc(Cl)c2)n1          active

Request: Returns: the outcome recorded for `CCOC(=O)/C=C/n1nnc(-c2cccc(F)c2)n1` in this assay.
Result: inactive

Request: // param item: `CCOC(=O)/C=C/n1nnc(-c2ccccc2Cl)n1` ; yields the recorded call
Result: inactive

Request: How did this test come out for `Clc1ccc(-c2nnn[nH]2)cc1` ?
Result: inactive

Request: Field: outcome | Entry: `CCOC(=O)/C=C\n1nnnc1-c1cccc(F)c1`
Result: inactive

Request: Record request — test call for `CCOC(=O)/C=C\n1nnc(-c2cccc(Br)c2)n1`
Result: active

Request: Fill in: this test's call for `CCOC(=O)/C=C/n1ccnc1-c1ccccc1` is ___
Result: inactive

Request: Tell me the recorded outcome of this test for `CCOC(=O)/C=C/n1cnc(-c2ccccc2N)n1` .
Result: inactive

Request: Identify the outcome logged in this assay for the compound shown: `CCOC(=O)/C=C/n1nnnc1-c1cccc(Cl)c1`
Result: inactive

Request: What outcome does the record of this test show for `CCOC(=O)/C=C\n1nnnc1-c1ccc(Cl)cc1` ?
Result: inactive

Request: Would you mind telling me which call this test gave `CCOC(=O)/C=C/n1ccc(-c2ccccc2)n1` ?
Result: inactive

Request: Test call for this compound, please: `CCOC(=O)/C=C\n1nnc(-c2cccc(F)c2)n1`
Result: active

Request: Which outcome was entered for the compound `CCOC(=O)C=Cn1ccnc1-c1ccccc1` in this test?
Result: inactive

====

measured.on: Exportin-1 (Homo sapiens) (UniProt O14980)
Sequence (O14980 whole entry): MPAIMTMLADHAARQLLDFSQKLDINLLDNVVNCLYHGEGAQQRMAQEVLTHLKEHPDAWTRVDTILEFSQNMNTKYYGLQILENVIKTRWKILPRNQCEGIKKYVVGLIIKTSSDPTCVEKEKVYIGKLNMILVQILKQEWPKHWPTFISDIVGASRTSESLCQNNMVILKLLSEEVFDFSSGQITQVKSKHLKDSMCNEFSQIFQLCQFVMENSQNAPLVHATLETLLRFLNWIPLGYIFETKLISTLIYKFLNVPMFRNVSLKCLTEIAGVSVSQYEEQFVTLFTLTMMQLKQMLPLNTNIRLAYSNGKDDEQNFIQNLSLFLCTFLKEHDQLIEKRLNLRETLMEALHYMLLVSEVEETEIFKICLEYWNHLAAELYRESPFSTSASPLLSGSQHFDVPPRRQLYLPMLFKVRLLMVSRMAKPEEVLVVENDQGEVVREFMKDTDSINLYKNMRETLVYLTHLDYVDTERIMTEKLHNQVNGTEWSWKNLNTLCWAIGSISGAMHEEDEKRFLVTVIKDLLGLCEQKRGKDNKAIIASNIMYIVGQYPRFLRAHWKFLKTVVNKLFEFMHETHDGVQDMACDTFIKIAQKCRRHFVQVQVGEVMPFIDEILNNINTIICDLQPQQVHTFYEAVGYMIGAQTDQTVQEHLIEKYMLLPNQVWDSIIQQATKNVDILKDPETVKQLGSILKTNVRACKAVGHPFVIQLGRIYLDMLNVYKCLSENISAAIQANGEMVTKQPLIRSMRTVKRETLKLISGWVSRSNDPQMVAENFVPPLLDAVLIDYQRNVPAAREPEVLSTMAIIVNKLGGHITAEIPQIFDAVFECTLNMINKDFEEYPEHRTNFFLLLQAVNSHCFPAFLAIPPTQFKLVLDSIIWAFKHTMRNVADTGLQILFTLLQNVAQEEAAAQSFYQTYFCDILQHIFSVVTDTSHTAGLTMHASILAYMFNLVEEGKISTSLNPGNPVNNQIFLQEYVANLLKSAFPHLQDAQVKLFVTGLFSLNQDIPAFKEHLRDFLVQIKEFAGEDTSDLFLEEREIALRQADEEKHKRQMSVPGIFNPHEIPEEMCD
measurement.notes: Inhibition of CRM1-mediated nucleocytoplasmic transport of RevM5 mutant in HEK293 cells assessed as RevM5-GFP nuclear localization at 0.4 ug/ml after 2 hrs by fluorescence microscopy
Assay type: cell-based
Calls of active or inactive are those of the source. No cut-off for these calls is given here.
Output constraint: value belongs to 1 = active, 0 = inactive

>>> df
                        entry_smiles  assigned_label
0  CCOC(=O)/C=C\n1nnnc1-c1cccc(Cl)c1               0
1               CCOC(=O)/C=C\n1ncnn1               0

Request: State the result this test recorded for `CCOC(=O)/C=C/n1cnc(-c2ccccc2N)n1` .
Result: 0

Request: Recorded test call requested for `CCOC(=O)/C=C/n1nnnc1-c1cccc(I)c1`
Result: 0

Request: What call does the record list for `Clc1ccc(-c2nnn[nH]2)cc1` ?
Result: 0

====

measured.on: Exportin-1 (Homo sapiens)
measurement.notes: Inhibition of CRM1-mediated nucleocytoplasmic transport of RevM5 mutant in HEK293 cells assessed as RevM5-GFP nuclear localization at 10 ug/ml after 2 hrs by fluorescence microscopy
Format: cell-based
The source made the active and inactive calls. The rule behind the calls is not given here.
attribute.measured: Activity

>>> df
                       entry_smiles  measured
0  CCOC(=O)/C=C\n1nnnc1-c1cccc(I)c1  inactive
1  CCOC(=O)/C=C\n1nnnc1-c1cccc(F)c1  inactive
2              CCOC(=O)/C=C\n1ncnn1  inactive
3             Clc1ccccc1-c1nnn[nH]1  inactive

====

measured.on: Exportin-1 (Homo sapiens) (UniProt O14980)
measurement.notes: Inhibition of CRM1-mediated nucleocytoplasmic transport of RevM5 mutant in HEK293 cells assessed as RevM5-GFP nuclear localization at 0.08 ug/ml after 2 hrs by fluorescence microscopy
Assay type: cell-based
Activity calls are given as the source filed them. No cut-off for these calls is given here.
attribute.measured: Activity

Example entries begin here.
>>> print(df.to_string())
                          entry_smiles  attribute_measured  measured
0   CCOC(=O)/C=C/n1nnc(-c2cccc(F)c2)n1            Activity  inactive
1                Clc1ccccc1-c1nnn[nH]1            Activity  inactive
2  CCOC(=O)/C=C/n1nnc(-c2cccc(Cl)c2)n1            Activity  inactive
3     CCOC(=O)/C=C\n1nnnc1-c1cccc(I)c1            Activity  inactive
4               Ic1cccc(-c2nnn[nH]2)c1            Activity  inactive
5    CCOC(=O)/C=C/n1nnnc1-c1cccc(Br)c1            Activity  inactive

Request: State its Activity: `CCOC(=O)/C=C\n1nnc(-c2cc(Cl)ccc2N)n1`
Result: inactive

Request: Provide measured Activity value, entry: `CCOC(=O)/C=C/n1nnnc1-c1ccc(Cl)cc1`
Result: inactive

Request: # return recorded Activity for input `Clc1cccc(-c2nnn[nH]2)c1`
Result: inactive

====

measured.on: UniProt:O14980
measurement.notes: Inhibition of CRM1-mediated nucleocytoplasmic transport of RevM5 mutant in HEK293 cells assessed as RevM5-GFP nuclear localization at 10 ug/ml after 2 hrs by fluorescence microscopy
Type: cell-based
Calls of active or inactive are those of the source. No cut-off for these calls is given here.
Please answer using one outcome listed in T (active), F (inactive)

Observe how each entry below is paired with its result.
>>> df
                          entry_smiles  assigned_label
0    CCOC(=O)/C=C\n1nnc(-c2ccccc2Cl)n1               T
1    CCOC(=O)/C=C/n1nnc(-c2ccccc2Cl)n1               T
2        CCOC(=O)/C=C/n1nnnc1-c1ccccc1               F
3              Clc1ccc(-c2nnn[nH]2)cc1               F
4  CCOC(=O)/C=C/n1nnc(-c2cccc(Br)c2)n1               T

Request: Hello, I am checking results. What call was entered for `CCOC(=O)/C=C\n1nnnc1-c1ccc(Cl)cc1` ?
Result: T

Request: Kindly provide the recorded test outcome for the following compound: `Clc1cccc(-c2nnn[nH]2)c1`
Result: F

====

measured.on: Exportin-1 (Homo sapiens) (UniProt O14980)
measurement.notes: Inhibition of CRM1-mediated nucleocytoplasmic transport of RevM5 mutant in HEK293 cells assessed as RevM5-GFP nuclear localization at 2 ug/ml after 2 hrs by fluorescence microscopy
Type: cell-based
Active and inactive are the calls of the source. The calls are words filed in the database; no cut-off is given here.
In this exercise, the only acceptable responses are label 1 for active, label 0 for inactive

Reference set (8 entries):
>>> df
                           entry_smiles  assigned_label
0                  CCOC(=O)/C=C\n1ncnn1         label 0
1         CCOC(=O)/C=C/n1nnnc1-c1ccccc1         label 0
2  CCOC(=O)/C=C\n1nnc(-c2cc(Cl)ccc2N)n1         label 1
3     CCOC(=O)/C=C/n1nnnc1-c1cccc(Br)c1         label 0
4     CCOC(=O)/C=C/n1nnnc1-c1ccc(Cl)cc1         label 0
5       CCOC(=O)/C=C\n1nnnc1-c1ccccc1Cl         label 0
6   CCOC(=O)/C=C/n1nnc(-c2ccc(Cl)cc2)n1         label 0
7                Fc1cccc(-c2nnn[nH]2)c1         label 0

Request: Please state the recorded outcome for this compound: `CCOC(=O)/C=C/n1nnnc1-c1cccc(I)c1`
Result: label 0

Request: Write down the call the test reported for this compound. Item: `c1ccc(-c2nnn[nH]2)cc1`
Result: label 0

Request: Give the logged outcome of this assay for the following compound: `CCOC(=O)/C=C/n1cnc(-c2ccccc2)c1`
Result: label 0

Request: What outcome does the record of this test show for `CCOC(=O)/C=C/n1ncnn1` ?
Result: label 0

Request: What is the recorded call for this compound in the test? `CCOC(=O)/C=C\n1nnc(-c2ccccc2Cl)n1`
Result: label 1

Request: Which outcome was entered for the compound `CCOC(=O)/C=C\n1ccc(-c2ccccc2)n1` in this test?
Result: label 0

Request: In this assay, the call recorded for `Nc1cc(Cl)ccc1-c1nnn[nH]1` was what?
Result: label 0

Request: Hi, do you know how `CCOC(=O)/C=C/n1nnc(-c2cc(Cl)ccc2N)n1` came out in this test?
Result: label 1

Request: Hey, what did the test say about `CCOC(=O)/C=C\n1nnnc1-c1cccc(Br)c1` ?
Result: label 0

Request: // outcome(item) with item = `CCOC(=O)/C=C\n1nnnc1-c1cccc(I)c1`
Result: label 0
